Value source: paper PMC10931745

Tested on: NO production in LPS-stimulated RAW 264.7 macrophages
experimental.protocol: Griess assay, NO production
Assay type: cell-based, murine
recorded.conditions: 25 µM, LPS 1 µg/mL, 24 h
value.type: Reduction in NO production

Some molecules with known Reduction in NO production results, for comparison:
>  <molecule>
Cn1c(=O)c2c(n(C)[c]([Au-][I])[n+]2CC(O)c2ccccc2)n(C)c1=O (racemic)

>  <Reduction in NO production>
~6.23%

$$$$
>  <molecule>
Cn1c(=O)c2c(n(C)[c]([Au-][I])[n+]2C2CCCCC2O)n(C)c1=O (stereo not drawn)

>  <Reduction in NO production>
~12.64%

$$$$

// Reduction in NO production value for Cn1c(=O)c2c(n(C)[c]([Au-][I])[n+]2CCO)n(C)c1=O : ~14.12%
